Test system: PPARg homodimer (NR concentration 180 nM)
Assay: PBM binding z-score (relative to random genomic background probes); higher = stronger binding; sequences stand for … in GC…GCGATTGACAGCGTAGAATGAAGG
Class definitions on PBM binding z-score: low: < 0.7; mid: ≥ 0.7 and < 2; high: ≥ 2

Solved entries:
[
  {
    "Biopolymer Sequence": "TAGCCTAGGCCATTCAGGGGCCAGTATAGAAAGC",
    "Answer Label": "low"
  },
  {
    "Biopolymer Sequence": "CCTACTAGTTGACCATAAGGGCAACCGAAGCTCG",
    "Answer Label": "mid"
  }
]

Class? Entry: "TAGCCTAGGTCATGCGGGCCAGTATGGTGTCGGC" mid

Also "GCGACTGGGGCAAAGCAGGTCACCATAAGGTTGG" ? mid

Also "TGAATGAGGTTATAAGATCAGGAAACGTTGCAAA" ? low

Also "CAAACTAGGTCAACGTCAAAGTCGGTTTGTGCCA" ? high

Also "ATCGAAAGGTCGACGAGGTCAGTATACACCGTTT" ? high

Also "GCTATTGGTTGAAAGGGCAACCGAATGATTCTCG" ? low

Also "CCTAGTTGGTCAAGGGCACACACGCTATAGGTAC" ? mid

Also "TCTATTAGTTGAAGGGCAACCGCCGAGTCCGTTT" ? mid

----------
Test system: PPARg:RXRa 270nM:90nM, anti-RXR (NR concentration 270 nM, RXRa partner concentration 90 nM)
Assay: PBM binding z-score (relative to random genomic background probes); higher = stronger binding; sequences stand for … in GC…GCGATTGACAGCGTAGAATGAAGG
Values of PBM binding z-score greater than or equal to 3 map to 1 (yes); values below map to 0 (no).

[
  {
    "Biopolymer Sequence": "AGTCAAAGTTCAGGACGAGCTAACGTAAAGCACG",
    "Answer Label": "1 (yes)"
  },
  {
    "Biopolymer Sequence": "ATCTCTAGGTAAAGGTTCAGTGAATCCCGAGGAT",
    "Answer Label": "1 (yes)"
  },
  {
    "Biopolymer Sequence": "GCTAGTTGGTCGGTAAAAGGTCACACACCGGTCG",
    "Answer Label": "1 (yes)"
  },
  {
    "Biopolymer Sequence": "AGAATGAGGTTATTAAGTTCAGGGAATTGCGGTC",
    "Answer Label": "0 (no)"
  },
  {
    "Biopolymer Sequence": "AGAACGAGGCCACGCTGAGTTGATAGCAGAGTAG",
    "Answer Label": "0 (no)"
  }
]

Does the sequence "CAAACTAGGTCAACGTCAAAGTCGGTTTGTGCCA" have recorded PBM binding z-score that is 3 or more? 1 (yes)

Also "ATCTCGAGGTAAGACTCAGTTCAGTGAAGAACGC" ? 0 (no)

Also "TTAGCAAGGTGAGCTGAGGTCGTTGATCCAACTC" ? 0 (no)

Also "CCTGCTAGGTCAGTGGTCAGCTAAAGCAGCTCGC" ? 0 (no)

Also "TCTCGGAGGACACGAAGGTCACAGCTTTCCAGAG" ? 1 (yes)

----------
Tested on: RARg homodimer (NR concentration 270 nM)
Assay: PBM binding z-score (relative to random genomic background probes); higher = stronger binding; sequences stand for … in GC…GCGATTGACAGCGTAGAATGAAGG
A collection of sequences and their measured PBM binding z-score
Returns: the value as a bare number; no unit string appended.

As a guide, the following entries are already answered.
[
  {
    "Biopolymer Sequence": "AGAACGAGGGCACGTTGAGTTGATAGCAGAGTAG",
    "Study System": "RARg homodimer (NR concentration 270 nM)",
    "Endpoint Name": "PBM binding z-score",
    "Obs Value": 1.95
  },
  {
    "Biopolymer Sequence": "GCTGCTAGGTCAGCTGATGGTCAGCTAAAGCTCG",
    "Study System": "RARg homodimer (NR concentration 270 nM)",
    "Endpoint Name": "PBM binding z-score",
    "Obs Value": 4.38
  },
  {
    "Biopolymer Sequence": "CCTACTGGGTCAAAAAGGTCATTGATGCCGATAA",
    "Study System": "RARg homodimer (NR concentration 270 nM)",
    "Endpoint Name": "PBM binding z-score",
    "Obs Value": 5.84
  },
  {
    "Biopolymer Sequence": "AGAATGAGGTTATACGTAGAACAGGGAAGAAAGT",
    "Study System": "RARg homodimer (NR concentration 270 nM)",
    "Endpoint Name": "PBM binding z-score",
    "Obs Value": 1.14
  }
]

Data request, read-out PBM binding z-score, for "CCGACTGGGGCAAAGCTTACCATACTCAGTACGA" 0.339

Also "CCAACTAGGTCACGAAAGGTCAAAGTCGAATGAC" ? 8.57

Also "ACAGAAAGGTGAGTGAAGGTAACTCAGCTGGACG" ? 1.59
